biological target: human VPAC2 (Homo sapiens, UniProt P41587); construct: expressed in transfected cells; assay: Alpha screen cAMP in vitro potency, human VPAC2 receptor; assay type: cell-based; details: cAMP generation; single result from two analyses performed in a single run; read-out: Human VPAC2 Receptor: Alpha Screen EC50
Where no end group is shown, it is not given here. [ ]: non-standard residue; d: D form. The star is where a group is joined. Orn = NCCC[C@H](N)C(=O)O; Hexanoyl = CCCCCC(=O)*; Aib = CC(C)(N)C(=O)O
metric: EC50

Illustrative cases are given below, each with its answer.
1) Hexanoyl-HSDAVFTDNYT[Orn]LR[Aib]QVAA[Aib]KYLQSIKNKRYGGPSSGAPPPS [Agonist P344]; 0.13 nM
2) Hexanoyl-HSDAVFTDNYTRLRKQVAAKLYLQSIKNKRYGGPSSGAPPPS [Agonist P185]; 0.18 nM
3) Hexanoyl-HSD[Aib]VFTDNYTRLRKQVAAKKYLQSIKNKRYGGPSSGAPPPS [Agonist P209]; 0.1 nM

We next turn to a different substance, shown below.
Send back human VPAC2 (Homo sapiens, UniProt P41587) EC50 of Hexanoyl-HSDAVFTDNYTRLRKQVAAKKYLQ[Aib]IKNKRYGGPSSGAPPPS [Agonist P187] only. 0.4 nM

----------
biological target: human PAC1 (Homo sapiens, UniProt P41586); experiment: Filter binding assay, membranes of cells transiently transfected with human PAC1, 125I-labeled PACAP-27 tracer (Table 2); parameters: expressed in transfected cells; settings: read-out: Human PAC1 Receptor Binding
Where no end group is shown, it is not given here. [ ]: non-standard residue; d: D form. The star is where a group is joined. hArg = N=C(N)NCCCC[C@H](N)C(=O)O; Hexanoyl = CCCCCC(=O)*
Recorded IC50 by entry
# output: bare number, implied unit nM

Illustrative cases are given below, each with its answer.
1. Hexanoyl-HSEAVFTDNYTRLRKQVAAKKYLQSIKNKRYGGPSSGAPPPS [Agonist P224]; 210
2. Hexanoyl-HSDAVFTDNYTRL[hArg]KQVAAKKYLQSIKNKRYGGPSSGAPPPS [Agonist P305]; 171

We next turn to a different substance, shown below.
Fill in IC50 for record Hexanoyl-HSDAVFTDNYTRLLAKVAAKKYLQSIKNKRYGGPSSGAPPPS [Agonist P135] 748

----------
target: human VPAC1 (Homo sapiens); test: Filter binding assay, membranes of cells transiently transfected with human VPAC1, 125I-labeled VIP tracer (Table 2); set-up: expressed in transfected cells
Sequence (P32241 31-457): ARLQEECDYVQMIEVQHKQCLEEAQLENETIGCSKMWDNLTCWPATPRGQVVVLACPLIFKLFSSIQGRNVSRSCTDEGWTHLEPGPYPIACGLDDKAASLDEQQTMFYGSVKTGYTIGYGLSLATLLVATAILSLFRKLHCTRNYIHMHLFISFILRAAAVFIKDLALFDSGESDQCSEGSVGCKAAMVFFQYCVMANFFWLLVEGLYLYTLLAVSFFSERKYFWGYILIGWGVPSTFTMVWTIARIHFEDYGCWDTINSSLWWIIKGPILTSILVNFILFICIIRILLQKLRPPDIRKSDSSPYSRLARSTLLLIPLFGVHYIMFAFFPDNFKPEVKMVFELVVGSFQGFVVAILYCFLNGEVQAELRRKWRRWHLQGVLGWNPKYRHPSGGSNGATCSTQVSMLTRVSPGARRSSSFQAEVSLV
Where no end group is shown, it is not given here. [ ]: non-standard residue; d: D form. Met(O) = CS(=O)CC[C@H](N)C(=O)O
Recorded pIC50 by entry
# reply with the number alone; pIC50 is -log10 of concentration in mol/L

Illustrative cases are given below, each with its answer.
1) H-MHSDAVFTDNYTRLRKQVAAKKYLQSIKNKRYGGPSSGAPPPS [Agonist P104]; 6.52
2) [Met(O)]HSDAVFTDNYTRLRKQVAAKKYLQSIKNKRYGGPSSGAPPPS [Agonist P199]; 6.37

Fill in pIC50 for record IHSDAVFTDNYTRLRKQVAAKKYLQSIKNKRYGGPSSGAPPPS [Agonist P105] 6.58

Fill in pIC50 for record MHSDAVFTDNYTRLLAKLALQKYLQSIKNKRYGGPSSGAPPPS [Agonist P140] 5.94

Fill in pIC50 for record H-HSDGVFTDNYTRLRKQVAAKKYLQSIKNKRYGGPSSGAPPPS [Agonist P102] 6.74

----------
Target: human PAC1 (Homo sapiens, UniProt P41586)
Sequence (P41586 21-468): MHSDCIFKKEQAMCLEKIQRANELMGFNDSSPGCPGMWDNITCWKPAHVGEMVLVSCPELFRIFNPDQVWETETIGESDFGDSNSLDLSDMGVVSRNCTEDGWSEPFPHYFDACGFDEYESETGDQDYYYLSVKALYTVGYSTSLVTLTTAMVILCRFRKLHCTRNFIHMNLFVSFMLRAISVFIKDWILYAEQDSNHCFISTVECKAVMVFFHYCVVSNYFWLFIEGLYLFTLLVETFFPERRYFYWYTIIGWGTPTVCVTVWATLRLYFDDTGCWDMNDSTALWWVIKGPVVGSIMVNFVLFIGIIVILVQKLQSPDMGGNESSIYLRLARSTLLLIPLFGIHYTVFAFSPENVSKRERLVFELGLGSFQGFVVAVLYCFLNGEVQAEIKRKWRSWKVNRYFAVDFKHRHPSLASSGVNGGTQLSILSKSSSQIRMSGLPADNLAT
Experiment: Filter binding assay, membranes of cells transiently transfected with human PAC1, 125I-labeled PACAP-27 tracer (Table 2)
Set-up: expressed in transfected cells
Conditions: read-out: Human PAC1 Receptor Binding
Where no end group is shown, it is not given here. [ ]: non-standard residue; d: D form. The star is where a group is joined. Hexanoyl = CCCCCC(=O)*
metric: IC50 (nM)
# output: bare number, implied unit nM

1. Hexanoyl-HSDAVFTDNYTRLRKQVAAKKWLQSIKNKRYGGPSSGAPPPS [Agonist P129]; 678
2. Hexanoyl-HSDAVFTDNYTRLRKQVAAKKYLQVIKNKRYGGPSSGAPPPS [Agonist P116]; 145
3. Hexanoyl-HSDAVFTDNYTRLRKQVAAKKYLQNIKNKRYGGPSSGAPPPS [Agonist P125]; 300
4. Hexanoyl-HSDAVFTDNYTRLRKQVAAWKYLQSIKNKRYGGPSSGAPPPS [Agonist P153]; 1130
5. Hexanoyl-HSDAVFTDNYTRLRKQVAAAKYLQSIKNKRYGGPSSGAPPPS [Agonist P181]; 522
6. Hexanoyl-H[dA]DAVFTDNYTRLRKQVAAKKYLQSIKNKRYGGPSSGAPPPS [Agonist P101]; 274

We next turn to a different substance, shown below.
Fill in IC50 for record Hexanoyl-HSDAVFTDNYTRLRKQVAAKKYLQSYKNKRYGGPSSGAPPPS [Agonist P111] 258

----------
target: rat VPAC1 receptor (Rattus norvegicus, UniProt P30083); experiment: DiscoveRx in vitro potency, CHO-PO cells transiently transfected with rat VPAC 1 receptor DNA; assay type: cell-based; set-up: expressed in transfected cells; host or cells: CHO-PO, transient
Sequence (P30083 31-459): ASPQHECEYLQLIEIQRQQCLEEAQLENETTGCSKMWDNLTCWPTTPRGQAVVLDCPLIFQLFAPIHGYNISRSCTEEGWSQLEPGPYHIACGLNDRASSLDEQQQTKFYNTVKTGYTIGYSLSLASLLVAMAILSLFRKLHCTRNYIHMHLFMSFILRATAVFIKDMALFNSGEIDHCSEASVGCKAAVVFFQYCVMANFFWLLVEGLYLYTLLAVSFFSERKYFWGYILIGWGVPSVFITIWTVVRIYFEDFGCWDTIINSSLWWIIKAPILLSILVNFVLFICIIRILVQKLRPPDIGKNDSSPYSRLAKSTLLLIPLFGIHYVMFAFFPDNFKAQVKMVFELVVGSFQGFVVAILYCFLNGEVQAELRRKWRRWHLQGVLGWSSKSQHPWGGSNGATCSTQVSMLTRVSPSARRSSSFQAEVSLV
Where no end group is shown, it is not given here. [ ]: non-standard residue; d: D form. The star is where a group is joined. Hexanoyl = CCCCCC(=O)*; Aib = CC(C)(N)C(=O)O
metric: pEC50
# reply with the number alone; pEC50 is -log10 of concentration in mol/L

Illustrative cases are given below, each with its answer.
1. Hexanoyl-HSDAVFTDNYTRL[Aib]KQVAAK[Aib]YLQSIKNKRYGGPSSGAPPPS [Agonist P244]; 6.89
2. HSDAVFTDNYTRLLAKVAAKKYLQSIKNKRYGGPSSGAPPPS [Agonist P89]; 10.70
3. Hexanoyl-HSDAVFTDNYTRLR[Aib]QIAA[Aib]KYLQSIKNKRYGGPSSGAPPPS [Agonist P322]; 9.30
4. Hexanoyl-HSDAVFTDNYTRLLAKLALQKYLQSIKNKRYGGPSSGAPPPS [Agonist P119]; 10.15
5. Hexanoyl-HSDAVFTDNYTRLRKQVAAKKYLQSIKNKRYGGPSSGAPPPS [Agonist P31]; 9.36
6. Hexanoyl-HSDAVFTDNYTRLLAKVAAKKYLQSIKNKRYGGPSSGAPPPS [Agonist P135]; 10.70
7. Hexanoyl-HSDAVFTDNYTRLR[Aib]QLAAK[Aib]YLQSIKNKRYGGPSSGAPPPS [Agonist P284]; 9.36

Send back rat VPAC1 receptor (Rattus norvegicus, UniProt P30083) pEC50 of Hexanoyl-HSEAVFTENYTRLR[Aib]QVAA[Aib]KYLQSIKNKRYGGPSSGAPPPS [Agonist P314] only. 7.53

----------
Molecular target: human VPAC2 (Homo sapiens, UniProt P41587)
Construct: expressed in transfected cells
Sequence (P41587 24-438): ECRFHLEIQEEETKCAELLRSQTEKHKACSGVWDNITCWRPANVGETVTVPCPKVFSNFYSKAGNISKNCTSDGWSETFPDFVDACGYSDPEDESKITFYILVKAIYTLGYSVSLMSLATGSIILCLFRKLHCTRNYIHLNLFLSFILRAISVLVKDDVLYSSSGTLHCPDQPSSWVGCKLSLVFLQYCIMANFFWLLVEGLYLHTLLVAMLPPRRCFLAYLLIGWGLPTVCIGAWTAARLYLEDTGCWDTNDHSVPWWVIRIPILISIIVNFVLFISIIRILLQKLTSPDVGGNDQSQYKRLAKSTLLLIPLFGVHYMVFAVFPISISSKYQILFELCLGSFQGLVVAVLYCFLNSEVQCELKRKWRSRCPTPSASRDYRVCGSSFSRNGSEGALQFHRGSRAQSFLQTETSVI
Assay: Alpha screen cAMP in vitro potency, human VPAC2 receptor
Type: cell-based
Conditions: cAMP generation; single result from two analyses performed in a single run; read-out: Human VPAC2 Receptor: Alpha Screen EC50
Where no end group is shown, it is not given here. [ ]: non-standard residue; d: D form. The star is where a group is joined. Hexanoyl = CCCCCC(=O)*; Aib = CC(C)(N)C(=O)O
Decide using EC50 alone. Strictly below 0.2 nM: Fulfilled. Equal to or above 0.2 nM: Not fulfilled.

1) Hexanoyl-HSDAVFTDNYTRLRKQVAAKKYLQSIKNKRYGGPSSGAPPPC [Agonist P120]; Fulfilled
2) Hexanoyl-HSDAVFTDNYTRLRKQLAAKKYLQSIKNKRYGGPSSGAPPPS [Agonist P290]; Not fulfilled
3) Hexanoyl-HSDAVFTDNYTRLRKQVAAKKYLQSFKNKRYGGPSSGAPPPS [Agonist P106]; Fulfilled

Given Hexanoyl-HGEGTFTDNYTRLRKQVAAKKYLQSIKNKRYGGPSSGAPPPS [Agonist P222] , is recorded EC50 strictly lower than 0.2 nM? Not fulfilled

Given Hexanoyl-HSDAVFTDNYTRLR[Aib]QVAALKYLQSIKNKRYGGPSSGAPPPS [Agonist P265] , is recorded EC50 strictly lower than 0.2 nM? Not fulfilled

Given Hexanoyl-HSDAVFTDNYTRLRKQVAAVKYLQSIKNKRYGGPSSGAPPPS [Agonist P146] , is recorded EC50 strictly lower than 0.2 nM? Fulfilled

Given Hexanoyl-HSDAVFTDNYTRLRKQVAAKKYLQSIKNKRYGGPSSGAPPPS [Agonist P31] , is recorded EC50 strictly lower than 0.2 nM? Fulfilled

Given HSDAVFTDNYTREKEKVAAKKYLQSIKNKRYGGPSSGAPPPS [Agonist P87] , is recorded EC50 strictly lower than 0.2 nM? Not fulfilled

Given Hexanoyl-HSDAVFTDNYTRLRRQVAARRYLQSIRNRRYGGPSSGAPPPS [Agonist P98] , is recorded EC50 strictly lower than 0.2 nM? Fulfilled

Given Hexanoyl-HSDAVFTDNYTRLRAQLAAQKYLQSIKNKRYGGPSSGAPPPS [Agonist P142] , is recorded EC50 strictly lower than 0.2 nM? Fulfilled

Given Hexanoyl-HSDAVFTDNYTRLR[Aib]QAAA[Aib]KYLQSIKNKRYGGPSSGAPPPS [Agonist P324] , is recorded EC50 strictly lower than 0.2 nM? Not fulfilled

Given Hexanoyl-HSDAVFTDNYTRLRKQVAAKKYLQSIKNSRGGPSSGAPPPS [Agonist P122] , is recorded EC50 strictly lower than 0.2 nM? Fulfilled

Given Hexanoyl-HSDAVFTDNYTRLLAKVALQKYLQSIKNKRYGGPSSGAPPPS [Agonist P196] , is recorded EC50 strictly lower than 0.2 nM? Not fulfilled
